species: Rattus norvegicus; assay: Open TG-GATES - Regimen: Single; assay type: toxicity, organism-based, Sprague-Dawley; set-up: regimen Single, gender Male, age 6 weeks; conditions: in vivo, po, 1000 mg/kg, 24 h, tissue Plasma, route gavage, dose level High
ASSAY ENDPOINT: CRE (mg/dL)

- COMPOUND: "C[C@H](CS)C(=O)N1CCC[C@H]1C(=O)O"
  ASSAY ENDPOINT: "CRE"
  SCALE UNIT: "mg/dL"
  NUMBER: 0.6
- COMPOUND: "O=C(O)c1cn(C2CC2)c2cc(N3CCNCC3)c(F)cc2c1=O"
  ASSAY ENDPOINT: "CRE"
  SCALE UNIT: "mg/dL"
  NUMBER: 0.5
- COMPOUND: "O=C(O)c1cc(/N=N/c2ccc(S(=O)(=O)Nc3ccccn3)cc2)ccc1O"
  ASSAY ENDPOINT: "CRE"
  SCALE UNIT: "mg/dL"
  NUMBER: 0.4
- COMPOUND: "CCc1cc(C(N)=S)ccn1 [ETHIONAMIDE]"
  ASSAY ENDPOINT: "CRE"
  SCALE UNIT: "mg/dL"
  NUMBER: 0.6
- COMPOUND: "Clc1ccccc1CN1CCc2sccc2C1"
  ASSAY ENDPOINT: "CRE"
  SCALE UNIT: "mg/dL"
  NUMBER: 0.5

###

species: Rattus norvegicus; assay: Open TG-GATES - Regimen: Single; format: toxicity, organism-based, Sprague-Dawley; set-up: regimen Single, gender Male, age 6 weeks; details: in vivo, po, 100 mg/kg, 24 h, tissue Blood, route gavage, dose level Low
ASSAY ENDPOINT: Lym

- COMPOUND: "O=C(O)c1cn(C2CC2)c2cc(N3CCNCC3)c(F)cc2c1=O"
  ASSAY ENDPOINT: "Lym"
  RESULT: "77%"
- COMPOUND: "Clc1ccccc1CN1CCc2sccc2C1"
  ASSAY ENDPOINT: "Lym"
  RESULT: "77.8%"
- COMPOUND: "CCc1cc(C(N)=S)ccn1 [ETHIONAMIDE]"
  ASSAY ENDPOINT: "Lym"
  RESULT: "62.4%"
- COMPOUND: "C[C@H](CS)C(=O)N1CCC[C@H]1C(=O)O"
  ASSAY ENDPOINT: "Lym"
  RESULT: "71.8%"
- COMPOUND: "O=C(O)c1cc(/N=N/c2ccc(S(=O)(=O)Nc3ccccn3)cc2)ccc1O"
  ASSAY ENDPOINT: "Lym"
  RESULT: "81%"

###

organism: Rattus norvegicus; assay: Open TG-GATES - Regimen: Daily Repeat; type: toxicity, organism-based, Sprague-Dawley; set-up: regimen Daily Repeat, gender Male, age 6 weeks; details: in vivo, po, 0 mg/kg, […], tissue Plasma, route gavage, dose level Control, time 7 day
As shown below, each of these compounds has a reported TBIL value.
ASSAY ENDPOINT: TBIL (mg/dL)

- SMILES REPRESENTATION: "COc1ccc2c(c1)c(CC(=O)O)c(C)n2C(=O)c1ccc(Cl)cc1"
  ASSAY ENDPOINT: "TBIL"
  NUMBER: 0.3
- SMILES REPRESENTATION: "O=C(O)c1cc(/N=N/c2ccc(S(=O)(=O)Nc3ccccn3)cc2)ccc1O"
  ASSAY ENDPOINT: "TBIL"
  NUMBER: 0.1
- SMILES REPRESENTATION: "NC(=O)N/N=C/c1ccc([N+](=O)[O-])o1"
  ASSAY ENDPOINT: "TBIL"
  NUMBER: 0.054
- SMILES REPRESENTATION: "COc1ccc(Cc2nccc3cc(OC)c(OC)cc23)cc1OC"
  ASSAY ENDPOINT: "TBIL"
  NUMBER: 0
- SMILES REPRESENTATION: "CC(=O)Oc1ccccc1C(=O)O"
  ASSAY ENDPOINT: "TBIL"
  NUMBER: 0.1

###

organism: Rattus norvegicus; test: Open TG-GATES - Regimen: Single; assay type: toxicity, organism-based, Sprague-Dawley; parameters: regimen Single, gender Male, age 6 weeks; details: in vivo, po, 300 mg/kg, 9 h, tissue Plasma, route gavage, dose level Middle

- COMPOUND: "CCc1cc(C(N)=S)ccn1 [ETHIONAMIDE]"
  ALT, IU/L: 31
- COMPOUND: "O=C(O)c1cc(/N=N/c2ccc(S(=O)(=O)Nc3ccccn3)cc2)ccc1O"
  ALT, IU/L: 32.4
- COMPOUND: "O=C(O)c1cn(C2CC2)c2cc(N3CCNCC3)c(F)cc2c1=O"
  ALT, IU/L: 33
- COMPOUND: "Clc1ccccc1CN1CCc2sccc2C1"
  ALT, IU/L: 31.2
- COMPOUND: "C[C@H](CS)C(=O)N1CCC[C@H]1C(=O)O"
  ALT, IU/L: 35.4

###

organism: Rattus norvegicus; test: Open TG-GATES - Regimen: Single; type: toxicity, organism-based, Sprague-Dawley; parameters: regimen Single, gender Male, age 6 weeks; conditions: in vivo, po, 0 mg/kg, 24 h, tissue Blood, route gavage, dose level Control
ASSAY ENDPOINT: APTT (s)

- MOLECULE: "NC(=O)N/N=C/c1ccc([N+](=O)[O-])o1 [NITROFURAZONE]"
  ASSAY ENDPOINT: "APTT"
  NUMBER: 17.5
- MOLECULE: "Cn1c(=O)c2[nH]cnc2n(C)c1=O.O [THEOPHYLLINE]"
  ASSAY ENDPOINT: "APTT"
  NUMBER: 21.9
- MOLECULE: "C[C@H](CS)C(=O)N1CCC[C@H]1C(=O)O [CAPTOPRIL]"
  ASSAY ENDPOINT: "APTT"
  NUMBER: 15.7
- MOLECULE: "CN(C)CCC=C1c2ccccc2CCc2ccccc21 [AMITRIPTYLINE]"
  ASSAY ENDPOINT: "APTT"
  NUMBER: 16.3
- MOLECULE: "COc1ccc(Cc2nccc3cc(OC)c(OC)cc23)cc1OC [PAPAVERINE]"
  ASSAY ENDPOINT: "APTT"
  NUMBER: 21.6
- MOLECULE: "O=C(O)c1cn(C2CC2)c2cc(N3CCNCC3)c(F)cc2c1=O [CIPROFLOXACIN]"
  ASSAY ENDPOINT: "APTT"
  NUMBER: 16.4
- MOLECULE: "CC(=O)Oc1ccccc1C(=O)O [ASPIRIN]"
  ASSAY ENDPOINT: "APTT"
  NUMBER: 18.4

###

species on record: Rattus norvegicus; assay: Open TG-GATES - Regimen: Single; assay type: toxicity, organism-based, Sprague-Dawley; design: regimen Single, gender Male, age 6 weeks; conditions: in vivo, po, 300 mg/kg, 9 h, tissue Plasma, route gavage, dose level Middle
ASSAY ENDPOINT: PL (mg/dL)

- MOLECULE: "CCc1cc(C(N)=S)ccn1 [ETHIONAMIDE]"
  NUMBER: 106.6
- MOLECULE: "C[C@H](CS)C(=O)N1CCC[C@H]1C(=O)O"
  NUMBER: 139.6
- MOLECULE: "O=C(O)c1cc(/N=N/c2ccc(S(=O)(=O)Nc3ccccn3)cc2)ccc1O"
  NUMBER: 149.2
- MOLECULE: "Clc1ccccc1CN1CCc2sccc2C1"
  NUMBER: 129
- MOLECULE: "O=C(O)c1cn(C2CC2)c2cc(N3CCNCC3)c(F)cc2c1=O"
  NUMBER: 120.4

###

species on record: Rattus norvegicus; assay: Open TG-GATES - Regimen: Single; type: toxicity, organism-based, Sprague-Dawley; parameters: regimen Single, gender Male, age 6 weeks; settings: in vivo, po, 1000 mg/kg, 9 h, tissue Plasma, route gavage, dose level High

- MOLECULE: "C[C@H](CS)C(=O)N1CCC[C@H]1C(=O)O"
  DBIL, mg/dL: 0.08
- MOLECULE: "CCc1cc(C(N)=S)ccn1 [ETHIONAMIDE]"
  DBIL, mg/dL: 0.018
- MOLECULE: "O=C(O)c1cc(/N=N/c2ccc(S(=O)(=O)Nc3ccccn3)cc2)ccc1O"
  DBIL, mg/dL: 0.06
- MOLECULE: "Clc1ccccc1CN1CCc2sccc2C1"
  DBIL, mg/dL: 0.076
- MOLECULE: "O=C(O)c1cn(C2CC2)c2cc(N3CCNCC3)c(F)cc2c1=O"
  DBIL, mg/dL: 0.08

###

Catalogue of Ret readings, one per entry.
species on record: Rattus norvegicus; experiment: Open TG-GATES - Regimen: Daily Repeat; format: toxicity, organism-based, Sprague-Dawley; design: regimen Daily Repeat, gender Male, age 6 weeks; conditions: in vivo, po, 0 mg/kg, […], tissue Blood, route gavage, dose level Control, time 7 day

- COMPOUND: "COc1ccc(Cc2nccc3cc(OC)c(OC)cc23)cc1OC"
  Ret (%): 5.6
- COMPOUND: "CCc1cc(C(N)=S)ccn1 [ETHIONAMIDE]"
  Ret (%): 3.8
- COMPOUND: "Clc1ccccc1CN1CCc2sccc2C1"
  Ret (%): 4.7
- COMPOUND: "CSc1ccc2c(c1)N(CCC1CCCCN1C)c1ccccc1S2 (centres undefined)"
  Ret (%): 5.4
- COMPOUND: "NC(=O)N/N=C/c1ccc([N+](=O)[O-])o1"
  Ret (%): 7
- COMPOUND: "Cn1c(=O)c2[nH]cnc2n(C)c1=O.O"
  Ret (%): 6
- COMPOUND: "CO[C@H]1/C=C/O[C@@]2(C)Oc3c(C)c(O)c4c(O)c(c(/C=N/N5CCN(C)CC5)c(O)c4c3C2=O)NC(=O)/C(C)=C\\C=C\\[C@H](C)[C@H](O)[C@@H](C)[C@@H](O)[C@@H](C)[C@H](OC(C)=O)[C@@H]1C"
  Ret (%): 5.8
- COMPOUND: "NC(=O)N1c2ccccc2C=Cc2ccccc21 [CARBAMAZEPINE]"
  Ret (%): 3.8
- COMPOUND: "COc1ccc2c(c1)c(CC(=O)O)c(C)n2C(=O)c1ccc(Cl)cc1"
  Ret (%): 5.7

All figures here come from ChEMBL document CHEMBL3885861.
